target-or-test-system: SHP2-C SH2;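 further: peptide library displayed on the E. coli surface as eCPX fusions, selected cells deep-sequenced, score is each peptide's frequency after selection divided by its frequency in the input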
procedure-text: SH2 binding enrichment of the phosphorylated peptide, bacterial display (enrichment ratio); higher = better substrate or ligand; peptides without Tyr show the background
readout-label: SH2 binding enrichment

Field: example entries. Status: answers known.
- SDVWSYGVTMW [ZAP70_Y525]: 0.576
- SGSWSYNTSTE [SELE_Y24_A21S]: 0.565
- SLEKSYKLPDG [ACTA1_Y242_E243K]: 0.592

A. KVPELYEIHKE [BCR_Y554]
B. TEYSQYMRRKN [MAX_Y73_I71S]
C. DVFLKYLNFAT [PDE6B_Y212]
Exercise: Hey, quick one: sort these by SH2 binding enrichment, largest value first please. Rank them, then answer with their labels in that order.
Solution: C, A, B
(C: 1.5, A: 0.751, B: 0.411)

I. TLMNAYSSRCH [KIF11_Y231_S235C]
II. SHMVDYQPFRK [TEX37_Y25_YF]
Exercise: Between the entries labeled I and II , whose measured SH2 binding enrichment is lower? Choose, then provide that item's label.
Solution: I

I. QSSALYEDHYL [ASS1_Y83_R86H]
II. QSHKVYVQHLL [POR_Y604]
Exercise: Given the listed records, identify the one among I and II with higher SH2 binding enrichment. Choose, then provide that item's label.
Solution: II

----------
A collection of sequences and their measured phosphorylation enrichment
Test system: c-Src;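 further: 11-residue human phosphosite peptides and single-mutation variants displayed on the E. coli surface, counted by deep sequencing, each peptide's frequency after selection divided by its frequency in the unselected input library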;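 further: frequency after pTyr selection over input frequency; kinase dosed for 20-30% of maximal phosphorylation in three min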
procedure-text: phosphorylation enrichment, bacterial display (enrichment ratio); higher = better substrate or ligand; peptides without Tyr show the background
Respond numerically, and do not add a unit to the figure.

Field: example entries. Status: answers known.
• DCVRMYELVHR [GLE1_Y135_G130D] = 1.3
• RARIRYAQEHD [NSD1_Y1987] = 0.636
• VVRSLYEDLED [VHL_Y185_I180V] = 0.544
• LLRLAYLADIF [ZBED5_Y476] = 0.419
• LREKVYASLEA [RXRA_Y397] = 6.94

Exercise: Endpoint output: phosphorylation enrichment of KGPNVYKKTVN [REV3L_Y1156] . Value?
Solution: 0.546

Exercise: Endpoint output: phosphorylation enrichment of LRIAVYHEILI [CREBBP_Y1450_T1447I] . Value?
Solution: 2.29

Exercise: Endpoint output: phosphorylation enrichment of SFKNKYGMVAQ [APOB_Y276_YF] . Value?
Solution: 0.375

Exercise: Endpoint output: phosphorylation enrichment of LWPIWYRCHRP [MRGPRX1_Y130] . Value?
Solution: 0.466

Exercise: Endpoint output: phosphorylation enrichment of HLWRIYYDITD [MMP27_Y307] . Value?
Solution: 4.21

Exercise: Endpoint output: phosphorylation enrichment of KLVQLYDVCTK [BTK_Y461_G462D] . Value?
Solution: 1.56

Exercise: Endpoint output: phosphorylation enrichment of KKYPDYIQIAM [SGMS2_Y59] . Value?
Solution: 0.483

Exercise: Endpoint output: phosphorylation enrichment of RDSQLYAVDYE [MRPS34_Y34] . Value?
Solution: 1.63

Exercise: Endpoint output: phosphorylation enrichment of LLARLYRGQAL [FGFR4_Y390_G388R] . Value?
Solution: 0.489

Exercise: Endpoint output: phosphorylation enrichment of MPAVTYTPAMR [MEGF10_Y895] . Value?
Solution: 0.384

Exercise: Endpoint output: phosphorylation enrichment of VNKIFHPDFIV [LIG3_Y768_Y768H_YF] . Value?
Solution: 0.497

Exercise: Endpoint output: phosphorylation enrichment of GAPATYEGDAR [CACNA1A_Y1013] . Value?
Solution: 0.368

Exercise: Endpoint output: phosphorylation enrichment of AIGFEYSEINI [SIGLEC12_Y588_YF] . Value?
Solution: 1.46

Exercise: Endpoint output: phosphorylation enrichment of EKKKFYDTKIE [CASP5_Y104_YF] . Value?
Solution: 0.6

Exercise: Endpoint output: phosphorylation enrichment of FRGFSYDDIPD [TMEM230_Y112_YF] . Value?
Solution: 0.485

Exercise: Endpoint output: phosphorylation enrichment of SGGCSYGSGGG [KRT1_Y539_G537C] . Value?
Solution: 0.394

Exercise: Endpoint output: phosphorylation enrichment of KGSEGYLAAIY [NF1_Y2503_T2507I] . Value?
Solution: 0.898

Exercise: Endpoint output: phosphorylation enrichment of LYVDVYGPSVP [NUBPL_Y109_D105Y] . Value?
Solution: 2.15
